# Test system: PANC-1 cells
# assay overview: PrestoBlue cell viability assay, comparative cytotoxicity assay under 'low glucose'
# Format: cell-based, human
# experimental parameters: 'low glucose', 24 h exposure; response (percent viability) at highest concentration 9 µM; three independent experiments in duplicate
# Excerpt: Endpoint fluorescence was quantified as described above.
Square brackets hold non-standard residues; d marks the D form. Peptide text beside a SMILES is read from it. * marks the point of attachment. Alaψ(CH2NMeCH2CH2OH) = C[C@@H](CN(C)CCO)N*; Decanoyl(2R-Me) = CCCCCCCC[C@@H](C)C(=O)*; Cha = N[C@@H](CC1CCCCC1)C(=O)O; Lauroyl = CCCCCCCCCCCC(=O)*; Decanoyl = CCCCCCCCCC(=O)*; Octanoyl = CCCCCCCC(=O)*; Hexanoyl = CCCCCC(=O)*; Aib = CC(C)(N)C(=O)O; Propionyl = CCC(=O)*; Butyryl = CCCC(=O)*
# Emax @ 9 µM, PrestoBlue, PANC-1 per record follows
Give the number; % is assumed, so skip it.

Here is how some compounds turned out for Emax @ 9 µM, PrestoBlue, PANC-1.
compound | tested on | Emax @ 9 µM, PrestoBlue, PANC-1, %
CCCCCC(=O)N1CCC[C@H]1C(=O)N[C@@H](CC1CCCCC1)C(=O)NC(C)(C)C(=O)NC(C)(C)C(=O)N[C@H](C(=O)N[C@H](C(=O)NC(C)(C)C(=O)NC(C)(C)C(=O)N[C@@H](C)CN(C)CCO)C(C)C)[C@@H](C)CC [(16)] (Hexanoyl-P[Cha][Aib][Aib]IV[Aib][Aib]-{Alaψ(CH2NMeCH2CH2OH)}) | PANC-1 cells | 7.7
CC[C@H](C)[C@H](NC(=O)C(C)(C)NC(=O)C(C)(C)NC(=O)[C@H](CC1CCCCC1)NC(=O)[C@@H]1CCCN1)C(=O)N[C@H](C(=O)NC(C)(C)C(=O)NC(C)(C)C(=O)N[C@@H](C)CN(C)CCO)C(C)C [(12)] (H-P[Cha][Aib][Aib]IV[Aib][Aib]-{Alaψ(CH2NMeCH2CH2OH)}) | PANC-1 cells | 101.0
CCC(=O)N1CCC[C@H]1C(=O)N[C@@H](CC1CCCCC1)C(=O)NC(C)(C)C(=O)NC(C)(C)C(=O)N[C@H](C(=O)N[C@H](C(=O)NC(C)(C)C(=O)NC(C)(C)C(=O)N[C@@H](C)CN(C)CCO)C(C)C)[C@@H](C)CC [(14)] (Propionyl-P[Cha][Aib][Aib]IV[Aib][Aib]-{Alaψ(CH2NMeCH2CH2OH)}) | PANC-1 cells | 31.5

In: Field request: Emax @ 9 µM, PrestoBlue, PANC-1 | item: CCCC(=O)N1CCC[C@H]1C(=O)N[C@@H](CC1CCCCC1)C(=O)NC(C)(C)C(=O)NC(C)(C)C(=O)N[C@H](C(=O)N[C@H](C(=O)NC(C)(C)C(=O)NC(C)(C)C(=O)N[C@@H](C)CN(C)CCO)C(C)C)[C@@H](C)CC [(15)] (Butyryl-P[Cha][Aib][Aib]IV[Aib][Aib]-{Alaψ(CH2NMeCH2CH2OH)})
Out: 31.0

In: Field request: Emax @ 9 µM, PrestoBlue, PANC-1 | item: CCCCCCCCCCCC(=O)N1CCC[C@H]1C(=O)N[C@@H](CC1CCCCC1)C(=O)NC(C)(C)C(=O)NC(C)(C)C(=O)N[C@H](C(=O)N[C@H](C(=O)NC(C)(C)C(=O)NC(C)(C)C(=O)N[C@@H](C)CN(C)CCO)C(C)C)[C@@H](C)CC [(19)] (Lauroyl-P[Cha][Aib][Aib]IV[Aib][Aib]-{Alaψ(CH2NMeCH2CH2OH)})
Out: 4.7

In: Field request: Emax @ 9 µM, PrestoBlue, PANC-1 | item: CCCCCCCCCC(=O)N1CCC[C@H]1C(=O)N[C@@H](CC1CCCCC1)C(=O)NC(C)(C)C(=O)NC(C)(C)C(=O)N[C@H](C(=O)N[C@H](C(=O)NC(C)(C)C(=O)NC(C)(C)C(=O)N[C@@H](C)CN(C)CCO)C(C)C)[C@@H](C)CC [(18)] (Decanoyl-P[Cha][Aib][Aib]IV[Aib][Aib]-{Alaψ(CH2NMeCH2CH2OH)})
Out: 3.3

In: Field request: Emax @ 9 µM, PrestoBlue, PANC-1 | item: CC[C@H](C)[C@H](NC(=O)C(C)(C)NC(=O)C(C)(C)NC(=O)[C@H](CC1CCCCC1)NC(=O)[C@@H]1CCCN1C(C)=O)C(=O)N[C@H](C(=O)NC(C)(C)C(=O)NC(C)(C)C(=O)N[C@@H](C)CN(C)CCO)C(C)C [(13)] (Ac-P[Cha][Aib][Aib]IV[Aib][Aib]-{Alaψ(CH2NMeCH2CH2OH)})
Out: 34.6

In: Field request: Emax @ 9 µM, PrestoBlue, PANC-1 | item: CCCCCCCC[C@@H](C)C(=O)N1CCC[C@H]1C(=O)N[C@@H](CC1CCCCC1)C(=O)NC(C)(C)C(=O)NC(C)(C)C(=O)N[C@H](C(=O)N[C@H](C(=O)NC(C)(C)C(=O)NC(C)(C)C(=O)N[C@@H](C)CN(C)CCO)C(C)C)[C@@H](C)CC [(4)] ({Decanoyl(2R-Me)}-P[Cha][Aib][Aib]IV[Aib][Aib]-{Alaψ(CH2NMeCH2CH2OH)})
Out: 2.3

In: Field request: Emax @ 9 µM, PrestoBlue, PANC-1 | item: CCCCCCCC(=O)N1CCC[C@H]1C(=O)N[C@@H](CC1CCCCC1)C(=O)NC(C)(C)C(=O)NC(C)(C)C(=O)N[C@H](C(=O)N[C@H](C(=O)NC(C)(C)C(=O)NC(C)(C)C(=O)N[C@@H](C)CN(C)CCO)C(C)C)[C@@H](C)CC [(17)] (Octanoyl-P[Cha][Aib][Aib]IV[Aib][Aib]-{Alaψ(CH2NMeCH2CH2OH)})
Out: 8.1
